- tgt: human PCSK9 (Homo sapiens, UniProt Q8NBP7)
- Sequence (Q8NBP7 153-692): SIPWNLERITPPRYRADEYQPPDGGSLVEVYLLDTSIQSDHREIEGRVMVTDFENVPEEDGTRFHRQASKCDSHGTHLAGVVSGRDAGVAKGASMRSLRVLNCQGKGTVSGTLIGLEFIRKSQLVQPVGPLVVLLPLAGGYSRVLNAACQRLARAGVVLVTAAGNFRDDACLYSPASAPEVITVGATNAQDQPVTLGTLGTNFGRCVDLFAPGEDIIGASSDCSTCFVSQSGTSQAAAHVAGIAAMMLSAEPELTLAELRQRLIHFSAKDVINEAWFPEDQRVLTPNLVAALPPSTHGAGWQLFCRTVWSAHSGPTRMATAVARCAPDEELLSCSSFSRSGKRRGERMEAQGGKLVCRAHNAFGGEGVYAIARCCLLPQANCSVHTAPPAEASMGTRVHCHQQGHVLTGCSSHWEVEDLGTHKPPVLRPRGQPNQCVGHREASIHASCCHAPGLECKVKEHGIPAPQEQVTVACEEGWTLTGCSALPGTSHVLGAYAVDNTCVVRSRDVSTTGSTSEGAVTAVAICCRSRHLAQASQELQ
- Sequence (Q8NBP7 31-152 partner limits assumed): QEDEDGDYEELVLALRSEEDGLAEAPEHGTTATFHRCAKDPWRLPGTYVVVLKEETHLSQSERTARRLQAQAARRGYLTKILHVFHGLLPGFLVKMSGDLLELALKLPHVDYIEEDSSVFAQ
- protocol-notes: PCSK9 ligand binding TR-FRET assay (interference with binding of human PCSK9 to human LDLR)
- test-conditions: PCSK9 FRET assay, efficacy (Amax); 100% = 1 uM unlabeled human PCSK9, 0% = DMSO
reported-endpoint: Max % inhibition (%)

molecule=COC[C@@H]1NC(=O)[C@H](CC(=O)N2CCOCC2)N(Cc2ccc(Cl)cc2Oc2ccc(-c3cnc(CN(C)C)n3C)cc2)C(=O)C[C@@H](Cc2ccccc2)C(=O)N(C)[C@@H](C)CNC(=O)C[C@H](Cc2ccc(Cl)cc2)N(C)C1=O reported_endpoint="Max % inhibition" reported_measurement=101.48
molecule=COC[C@@H]1NC(=O)[C@H](C)N(Cc2ccc(Cl)cc2Oc2ccc(-c3cnc(CN4CCCC4)n3C)cc2)C(=O)C[C@@H](Cc2ccccc2)C(=O)N(C)[C@@H](CCF)CNC(=O)C[C@H](Cc2ccc(Cl)cc2)N(C)C1=O reported_endpoint="Max % inhibition" reported_measurement=99.18
molecule=COC[C@@H]1NC(=O)[C@H](C)N(Cc2ccc(Cl)cc2Oc2ccc(-n3cnc(C(=O)NCCO)c3C)cc2)C(=O)C[C@@H](Cc2ccccc2)C(=O)N(C)[C@@H](C)CNC(=O)C[C@H](Cc2ccc(Cl)cc2)N(C)C1=O reported_endpoint="Max % inhibition" reported_measurement=75.17
molecule=COC[C@@H]1NC(=O)[C@H](C)N(Cc2ccc(Cl)cc2Oc2ccc(-c3cnc(CN(C)C)n3C)cc2)C(=O)CCC(=O)N(C)[C@H]2CCCC[C@@H]2NC(=O)C[C@H](Cc2ccc(Cl)cc2)N(C)C1=O reported_endpoint="Max % inhibition" reported_measurement=95.27
molecule="COC[C@@H]1NC(=O)C(C)N(Cc2c(F)cc(F)cc2Oc2ccc(-c3cnc(CN(C)C)n3C)cc2)C(=O)C[C@@H](Cc2ccccc2)C(=O)N(C)[C@H]2CCCC[C@@H]2NC(=O)C[C@H](Cc2ccc(Cl)cc2)N(C)C1=O (some centres unmarked)" reported_endpoint="Max % inhibition" reported_measurement=84.34
molecule=C[C@H]1CNC(=O)C[C@H](Cc2ccc(Cl)cc2)N(C)C(=O)[C@H](CC(=O)N(C)C)NC(=O)[C@H](C)N(Cc2ccc(Cl)cc2Oc2ccc(-c3cnc(CN(C)C)n3C)cc2)C(=O)C[C@@H](Cc2ccccc2)C(=O)N1C reported_endpoint="Max % inhibition" reported_measurement=91.45
molecule=COC[C@@H]1NC(=O)[C@H](C)N(Cc2ccc(Cl)cc2Oc2ccc(-c3cnc(CN(C)C)n3C)cc2)C(=O)C[C@H](Cn2cccn2)C(=O)N(C)[C@H]2CCCC[C@@H]2NC(=O)C[C@H](Cc2ccc(Cl)cc2)N(C)C1=O reported_endpoint="Max % inhibition" reported_measurement=95.16
molecule=COC[C@@H]1NC(=O)[C@H](C)N(Cc2ccc(Cl)cc2Oc2ccc(-c3cnc4n3CCN(C(=O)[C@H]3CCOC3)C4)cc2)C(=O)C[C@@H](Cc2ccccc2)C(=O)N(C)[C@@H](C)CNC(=O)C[C@H](Cc2ccc(Cl)cc2)N(C)C1=O reported_endpoint="Max % inhibition" reported_measurement=91.41

---

- tgt: human PCSK9 (Homo sapiens)
- protocol-notes: PCSK9 ligand binding TR-FRET assay (interference with binding of human PCSK9 to human LDLR)
- test-conditions: PCSK9 FRET assay, efficacy (Amax); 100% = 1 uM unlabeled human PCSK9, 0% = DMSO
reported-endpoint: Max % inhibition (%)

These solved cases illustrate the format of a correct answer.
compound="COC[C@@H]1NC(=O)[C@H](C)N(Cc2ccc(Cl)cc2Oc2ccc(-n3cnc(CN4CC5(COC5)C4)c3C)cc2)C(=O)C[C@@H](Cc2ccccc2)C(=O)N(C)[C@@H](C)CNC(=O)C[C@H](Cc2ccc(Cl)cc2)N(C)C1=O [Compound 112]" reported_measurement=107.46
compound="COC[C@@H]1NC(=O)[C@H](CC(=O)N2CC3(COC3)C2)N(Cc2ccc(Cl)cc2Oc2ccc(-c3cnc(CN(C)C)n3C)cc2)C(=O)C[C@@H](Cc2ccccc2)C(=O)N(C)C2CCCCC2NC(=O)C[C@H](Cc2ccc(Cl)cc2)N(C)C1=O (stereo in doubt) [Compound 106]" reported_measurement=106.45

A = CCOC(=O)c1ncn(-c2ccc(Oc3cc(Cl)ccc3CN3C(=O)C[C@@H](Cc4ccccc4)C(=O)N(C)[C@@H](C)CNC(=O)C[C@H](Cc4ccc(Cl)cc4)N(C)C(=O)[C@H](COC)NC(=O)[C@@H]3C)cc2)c1C [Compound 149]
B = COC[C@@H]1NC(=O)[C@H](C)N(Cc2c(OCC(F)(F)F)cc(Cl)cc2Oc2ccc(-c3cnc(CN(C)C)n3C)cc2)C(=O)CCC(=O)N(C)[C@H]2CCCC[C@@H]2NC(=O)C[C@H](Cc2ccc(Cl)cc2)N(C)C1=O [Compound 39]
IN: Between A and B , which one shows the larger Max % inhibition value? Identify your selection by its label.
OUT: B
